- TEST TARGET: HLA-A0207 (Homo sapiens, UniProt P04439, D140Y/D185E/D98H/E176V/E277Q/G131W/G231S/I119V/I121R/I166T/I218V/L300P/L318F/N151K/N90K/P208A/P217A/Q86G/Q94H/R138H/R169H/T345S/Y123C)
- Construct: expressed in transfected cells; host or cells: HMy2.CIR
- EXPERIMENT NOTES: Peptide competitive binding assay, HMy2.CIR cells expressing A0207
- STATED CONDITIONS: peptide 15 μM vs FITC-labeled reference peptide 300 nM, 24 h, 4°C, flow cytometry
Entries and their 15-μM inhibition (%)
Respond numerically; units are % and should not be typed.

{"columns": ["SEQUENCE RECORD", "UNITS OF MEASURE", "15-μM inhibition (%)"],
 "data": [
  ["YQLEKDPIV [Peptide P11]", "%", 12.66],
  ["LVDTIAIAV [Peptide P77]", "%", 23.40]
]}

Now, please, on to the next sequence.
Notebook: QLTEVVQKV [Peptide P80] , 15-μM inhibition (%) read as 25.60

----------
- TEST TARGET: HLA-A2402 (Homo sapiens, UniProt P04439, D101N/D140Y/D185E/E176V/E190D/F33S/G103R/G107R/I119L/I121M/I306V/K335N/L105A/L180Q/L300P/N151K/N90K/Q86E/Q94H/R106L/R138H/R89G/T104I/T345S/V100E/W191G/Y123F)
- EXPERIMENT NOTES: cell-based
- Type: binding
- STATED CONDITIONS: A2402; peptide 5 μM vs FITC-labeled reference peptide 300 nM, 24 h, 4°C, flow cytometry
Where no end group is shown, it is not given here.
PARAMETER MEASURED: inhibition at 5 µM (%)
Respond numerically; units are % and should not be typed.

The examples below pair each entry with its known result.
{"columns": ["SEQUENCE RECORD", "inhibition at 5 µM [%]"],
 "data": [
  ["YWQATWIPEW [Peptide P60]", 97.5],
  ["FYCNTSGLF [Peptide P46]", 95],
  ["TYQIYQEPF [Peptide P58]", 54.1],
  ["WWMEYWQATW [Peptide P57]", 29.2],
  ["KYRLKHLVW [Peptide P54]", 35.8]
]}

Now, please, on to the next sequence.
Notebook: MYSPTSILDI [Peptide P52] , inhibition at 5 µM read as 21.6

----------
- TEST TARGET: HLA-A1101 (Homo sapiens, UniProt P04439, A114D/D185E/E176A/F33Y/L180Q/S129P/T187R)
- Construct: expressed in transfected cells; host or cells: HMy2.CIR
- EXPERIMENT NOTES: cell-based
- Format: binding
- STATED CONDITIONS: A1101; peptide 15 μM vs FITC-labeled reference peptide 300 nM, 24 h, 4°C, flow cytometry; read-out: 15-μM inhibition (%)
Where no end group is shown, it is not given here.
Rule: inhibition at 15 µM under 90% gives Not satisfied, otherwise Satisfied.

{"columns": ["SEQUENCE RECORD", "DISCRETE LABEL"],
 "data": [
  ["TSLPKQEQK [Peptide P31]", "Not satisfied"],
  ["SVPLDESFRK [Peptide P42]", "Satisfied"],
  ["ITNWLWYIK [Peptide P20]", "Not satisfied"],
  ["FVNTPPLVK [Peptide P44]", "Satisfied"]
]}

# input for lookup
query: Could you tell me if the measured inhibition at 15 µM of ATLWCVHQR [Peptide P34] reaches 90% or more?
result: Not satisfied

----------
Entries and their inhibition at 15 µM
- TEST TARGET: HLA-A1101 (Homo sapiens, UniProt P04439, A114D/D185E/E176A/F33Y/L180Q/S129P/T187R)
- Construct: expressed in transfected cells; host or cells: HMy2.CIR
- EXPERIMENT NOTES: cell-based
- Type: binding
- STATED CONDITIONS: A1101; peptide 15 μM vs FITC-labeled reference peptide 300 nM, 24 h, 4°C, flow cytometry; read-out: 15-μM inhibition (%)
Where no end group is shown, it is not given here.
Respond numerically; units are % and should not be typed.

{"columns": ["SEQUENCE RECORD", "UNITS OF MEASURE", "inhibition at 15 µM"],
 "data": [
  ["GTYTPNGTK [Peptide P22]", "%", 87.4],
  ["TTLFCASDAK [Peptide P28]", "%", 92.2],
  ["IVIWGKTPK [Peptide P43]", "%", 90.1],
  ["GSNFTSAAVK [Peptide P37]", "%", 91],
  ["CTPAGYAILK [Peptide P23]", "%", 88.1]
]}

Now, please, on to the next sequence.
Notebook: ATESIVIWGK [Peptide P36] , inhibition at 15 µM read as 90.7

Entry source: paper PMC11850406
